- System: Zymoseptoria tritici (SEPTTR-184)
- PROTOCOL_DESCRIPTION: Cyp51 dsRNA tile (fragment) foliar application bioassay (Example 6)
- Type: in vivo
- CONDITION_PARAMETERS: 1 day protectant; calculated from disease control
EXPERIMENTAL_ENDPOINT: ED50 (ppm) SEPTTR-184 1DP

Use the examples below as a reference point.
So, MgCyp51-T6: dsRNA tile of Zymoseptoria tritici Cyp51, 280 bp, location 881-1160 (nucleic acid, listed as Zymoseptoria tritici) ATGCCATTCCCGACAAGGAGATTGCTCATATGATGATTGCGCTGCTCATGGCCGGCCAGCACTCTTCATCTGCGACCGAGTCCTGGATCACTCTCCGCCTCGCATCCCGCCCCGACATCCAAGACGAACTCCTCCAAGAACAAAAGGATATGCTCGGTGTGAACGCCGACGGCAGTATCAAGGAGCTCACATACGCCAACCTCTCGAAACTCACCCTCCTCAATCAAGTCGTCAAAGAAACCCTTCGTATTCACGCTCCAATCCACTCCATTCTGCGCAA ? Its ED50 (ppm) SEPTTR-184 1DP was 3.125 ppm

So, MgCyp51-T4: dsRNA tile of Zymoseptoria tritici Cyp51, 178 bp, location 647-824 (nucleic acid, listed as Zymoseptoria tritici) AGGGCTTCGACTCGTCTTTCGCGGACCTCTACCACTACCTCGATATGGGATTCACACCGATCAACTTTATGCTTCCGTGGGCGCCCCTTCCCCAGAACCGACGCCGCGATTATGCGCAGAAGAAGATGTCCGAGACATACATGTCGATCATTCAGAAGAGACGAGAGTCCAAAACGGG ? Its ED50 (ppm) SEPTTR-184 1DP was <3.125 ppm

So, MgCyp51-T10: dsRNA tile of Zymoseptoria tritici Cyp51, 172 bp, location 345-516 (nucleic acid, listed as Zymoseptoria tritici) GGACGTCAACGCGGAGGAGATATACAGCCCGCTGACCACTCCTGTCTTTGGCAAGGATGTGGTTTATGATTGTCCCAATTCGAAGCTCATGGAGCAGAAGAAGTTCGTCAAGTACGGCCTCACAACCTCTGCCCTCCAGTCCTACGTGACCTTGATCGCCGCCGAGACCCGC ? Its ED50 (ppm) SEPTTR-184 1DP was <3.125 ppm

So, MgCyp51-T12: dsRNA tile of Zymoseptoria tritici Cyp51, 138 bp, location 1377-1514 (nucleic acid, listed as Zymoseptoria tritici) TGGCTACGGCCTGGTAAGCAAGGGCGCGGCGTCGCCATACTTACCCTTTGGTGCGGGACGACACAGATGTATCGGCGAGCAATTCGCGTACGTGCAATTGCAGACCATTACAGCGACGATGGTTCGCGATTTCAAGTT ? Its ED50 (ppm) SEPTTR-184 1DP was <3.125 ppm

Continuing:
So, MgCyp51-T9: dsRNA tile of Zymoseptoria tritici Cyp51, 172 bp, location 1-172 (nucleic acid, listed as Zymoseptoria tritici, double-stranded RNA) ATGGGTCTCCTCCAGGAAGTCCTCGCGCAGTTCGACGCGCAATTCGGCCAGACCAGCCTCTGGAAACTTGTCGGACTTGGATTCCTCGCCTTCAGCACGCTCGCCATCCTCCTCAATGTCCTCTCACAACTTCTCTTCCGTGGCAAGTTGTCCGATCCGCCACTCGTATTCC ? Its ED50 (ppm) SEPTTR-184 1DP was <3.125 ppm
